All figures here come from ChEMBL document CHEMBL3856234.

- Method: Solubility of the compound in water measured after 24 hrs by HPLC analysis
- Assay type: physicochemical

Molecule Smiles: CCCN(CCC)Cc1cn(-c2cc(NC(=S)NCC)ncn2)cn1
solubility at 24 h / µg/mL: 58
--
Molecule Smiles: CCNC(=S)Nc1cc(-n2cnc(CN(C)Cc3ccccc3)c2)ncn1
solubility at 24 h / µg/mL: 58
--
Molecule Smiles: CCNC(=S)Nc1cc(-n2cnc(CN3CCCC3)c2)ncn1.Cl
solubility at 24 h / µg/mL: 19500
--
Molecule Smiles: CCCN(CCC)Cc1cn(-c2cc(NC(=S)NCC)ncn2)cn1.Cl
solubility at 24 h / µg/mL: 3380
--
Molecule Smiles: CCNC(=S)Nc1cc(-n2cnc(CN(C)Cc3ccccc3)c2)ncn1.Cl
solubility at 24 h / µg/mL: 2740
--
Molecule Smiles: CCNC(=S)Nc1cc(-n2cnc(CN3CCCC3)c2)ncn1
solubility at 24 h / µg/mL: 340

---

- Method: Ratio of drug level in brain hippocampus to plasma in ICR mouse at 200 mg/kg administered through oral gavage
- Format: ADME, organism-based
- Experimental Conditions: read-out: logBB (converted)
Readout Kind: Kp

Molecule Smiles: CCCN(CCC)Cc1cn(-c2cc(NC(=S)NCC)ncn2)cn1.Cl
Numeric Value: 0.324

---

- Method: Drug uptake in ICR mouse brain cortex at 200 mg/kg administered through oral gavage measured after 1 hr by LC-MS/MS analysis
- Format: ADME, organism-based
- Experimental Conditions: read-out: Drug uptake
Readout Kind: concentration at 1 h (ng/g)

Molecule Smiles: CCCN(CCC)Cc1cn(-c2cc(NC(=S)NCC)ncn2)cn1.Cl
Unit Spec: ng/g
Numeric Value: 296

---

- Organism: Rattus norvegicus
- Method: Inhibition of rat serum BuChE at 40 uM using butyrylthiocholine as substrate measured after 20 mins by Ellman's method relative to control
Reported inhibition is given for each of the following compounds.

Molecule Smiles: CCCN(CCC)Cc1cn(-c2cc(NC(=S)NCC)ncn2)cn1
Unit Spec: %
inhibition: 32.8
--
Molecule Smiles: CCNC(=S)Nc1cc(-n2cnc(CNC)c2)ncn1
Unit Spec: %
inhibition: 27.3
--
Molecule Smiles: CCNC(=S)Nc1cc(-n2cnc(CN3CCN(C)CC3)c2)ncn1
Unit Spec: %
inhibition: 10.8
--
Molecule Smiles: CCNC(=S)Nc1cc(-n2cnc(CNCc3ccccc3)c2)ncn1
Unit Spec: %
inhibition: 48
--
Molecule Smiles: CCNC(=S)Nc1cc(-n2cnc(C=O)c2)ncn1
Unit Spec: %
inhibition: 4.63
--
Molecule Smiles: CCNC(=S)Nc1cc(-n2cnc(CN3CCCC3)c2)ncn1
Unit Spec: %
inhibition: 33.5
--
Molecule Smiles: CCNC(=S)Nc1cc(-n2cnc(CN(C)C)c2)ncn1
Unit Spec: %
inhibition: 7.02
--
Molecule Smiles: CCNC(=S)Nc1cc(-n2cnc(CN(CC)CC)c2)ncn1
Unit Spec: %
inhibition: 20.2
--
Molecule Smiles: CCNC(=S)Nc1cc(-n2cnc(CN3CCOCC3)c2)ncn1
Unit Spec: %
inhibition: 13.3
--
Molecule Smiles: CCNCc1cn(-c2cc(NC(=S)NCC)ncn2)cn1
Unit Spec: %
inhibition: 21.5

---

- Organism: Rattus norvegicus
- Method: Selectivity index, ratio of IC50 for rat serum BuChE to IC50 for rat cortex AChE
Reported Ratio IC50 is given for each of the following compounds.

Molecule Smiles: CCNC(=S)Nc1cc(-n2cnc(CN3CCCCCC3)c2)ncn1
Value Comparator: =
Ratio IC50: 59
//
Molecule Smiles: CCNC(=S)Nc1cc(-n2cnc(CN3CCCC3)c2)ncn1
Value Comparator: >
Ratio IC50: 597
//
Molecule Smiles: CCNC(=S)Nc1cc(-n2cnc(CN3CCCCC3)c2)ncn1
Value Comparator: =
Ratio IC50: 164
//
Molecule Smiles: CCNC(=S)Nc1cc(-n2cnc(CN(C)Cc3ccccc3)c2)ncn1
Value Comparator: =
Ratio IC50: 84
//
Molecule Smiles: CCNC(=S)Nc1cc(-n2cnc(C=O)c2)ncn1
Value Comparator: >
Ratio IC50: 241
//
Molecule Smiles: C/C=C1\[C@H]2C=C(C)C[C@]1(N)c1ccc(=O)[nH]c1C2
Value Comparator: =
Ratio IC50: 444
//
Molecule Smiles: CCNC(=S)Nc1cc(-n2cnc(CN3CCN(C)CC3)c2)ncn1
Value Comparator: >
Ratio IC50: 388
//
Molecule Smiles: CCCN(CCC)Cc1cn(-c2cc(NC(=S)NCC)ncn2)cn1
Value Comparator: >
Ratio IC50: 196
//
Molecule Smiles: CCNC(=S)Nc1cc(-n2cnc(CN(C)C)c2)ncn1
Value Comparator: >
Ratio IC50: 261
//
Molecule Smiles: CCNCc1cn(-c2cc(NC(=S)NCC)ncn2)cn1
Value Comparator: >
Ratio IC50: 117

---

- Target Or System: Acetylcholinesterase (Rattus norvegicus, UniProt P37136)
- Sequence (P37136 whole entry): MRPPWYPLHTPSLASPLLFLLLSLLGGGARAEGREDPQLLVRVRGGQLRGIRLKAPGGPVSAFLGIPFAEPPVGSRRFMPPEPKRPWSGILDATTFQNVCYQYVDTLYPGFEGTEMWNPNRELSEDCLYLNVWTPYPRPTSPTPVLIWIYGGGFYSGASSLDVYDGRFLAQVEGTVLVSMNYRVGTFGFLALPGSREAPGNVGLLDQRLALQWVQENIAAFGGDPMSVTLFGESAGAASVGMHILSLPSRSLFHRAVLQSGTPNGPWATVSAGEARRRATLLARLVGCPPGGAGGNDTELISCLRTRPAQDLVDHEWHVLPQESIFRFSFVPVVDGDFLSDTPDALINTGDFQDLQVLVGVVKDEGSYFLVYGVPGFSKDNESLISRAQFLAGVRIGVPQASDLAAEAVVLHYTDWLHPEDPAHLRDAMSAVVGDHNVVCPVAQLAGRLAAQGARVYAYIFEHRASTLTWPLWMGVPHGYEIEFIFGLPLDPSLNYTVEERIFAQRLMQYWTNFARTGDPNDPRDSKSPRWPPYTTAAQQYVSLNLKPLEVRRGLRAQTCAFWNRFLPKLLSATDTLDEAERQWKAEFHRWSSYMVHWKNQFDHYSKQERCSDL
pIC50: −log10 of the molar value.
Reported pIC50 is given for each of the following compounds.

Molecule Smiles: CCNC(=S)Nc1ncnc(-n2ccnc2)c1C
Target Or System: Acetylcholinesterase (Rattus norvegicus, UniProt P37136)
Value Comparator: <
pIC50: 4.40
//
Molecule Smiles: CCNC(=S)Nc1cc(-n2cccc2)ncn1
Target Or System: Acetylcholinesterase (Rattus norvegicus, UniProt P37136)
Value Comparator: <
pIC50: 4.40
//
Molecule Smiles: CCNC(=S)Nc1cc(-n2cnc(Cl)c2)ncn1
Target Or System: Acetylcholinesterase (Rattus norvegicus, UniProt P37136)
Value Comparator: =
pIC50: 6.21
//
Molecule Smiles: CCNC(=S)Nc1cc(-n2cnc(C(F)(F)F)c2)ncn1
Target Or System: Acetylcholinesterase (Rattus norvegicus, UniProt P37136)
Value Comparator: =
pIC50: 6.02
//
Molecule Smiles: CCNC(=S)Nc1cc(-n2ccnc2)nc(C)n1
Target Or System: Acetylcholinesterase (Rattus norvegicus, UniProt P37136)
Value Comparator: =
pIC50: 5.06
//
Molecule Smiles: CCNC(=S)Nc1cc(-n2cnc(C)c2)ncn1
Target Or System: Acetylcholinesterase (Rattus norvegicus, UniProt P37136)
Value Comparator: =
pIC50: 5.49
//
Molecule Smiles: CCNC(=S)Nc1cc(-n2cnc(I)c2)ncn1
Target Or System: Acetylcholinesterase (Rattus norvegicus, UniProt P37136)
Value Comparator: =
pIC50: 6.20
//
Molecule Smiles: CCNC(=S)Nc1cc(-n2cnc(CNCc3ccccc3)c2)ncn1
Target Or System: Acetylcholinesterase (Rattus norvegicus, UniProt P37136)
Value Comparator: =
pIC50: 6.56
//
Molecule Smiles: CCNC(=S)Nc1cc(N2CCCC2)ncn1
Target Or System: Acetylcholinesterase (Rattus norvegicus, UniProt P37136)
Value Comparator: <
pIC50: 4.40
//
Molecule Smiles: CCCNC(=S)Nc1cc(-n2cccn2)ncn1
Target Or System: Acetylcholinesterase (Rattus norvegicus, UniProt P37136)
Value Comparator: =
pIC50: 4.66
//
Molecule Smiles: CCNC(=S)Nc1nccc(-n2ccnc2)n1
Target Or System: Acetylcholinesterase (Rattus norvegicus, UniProt P37136)
Value Comparator: =
pIC50: 5.07
//
Molecule Smiles: CCNC(=S)Nc1cc(-n2cnc(CN(CC)CC)c2)ncn1
Target Or System: Acetylcholinesterase (Rattus norvegicus, UniProt P37136)
Value Comparator: =
pIC50: 6.94
//
Molecule Smiles: CCNC(=S)Nc1cc(-n2cnc(CN(C)Cc3ccccc3)c2)ncn1
Target Or System: Acetylcholinesterase (Rattus norvegicus, UniProt P37136)
Value Comparator: =
pIC50: 6.74
//
Molecule Smiles: CCNC(=S)Nc1cc(-n2cnc(CNC)c2)ncn1
Target Or System: Acetylcholinesterase (Rattus norvegicus, UniProt P37136)
Value Comparator: =
pIC50: 6.60
//
Molecule Smiles: CCNC(=S)Nc1cc(-n2cnc(C(=O)OC)c2)ncn1
Target Or System: Acetylcholinesterase (Rattus norvegicus, UniProt P37136)
Value Comparator: =
pIC50: 6.46
//
Molecule Smiles: CCNC(=S)Nc1cc(NCc2ccccc2)ncn1
Target Or System: Acetylcholinesterase (Rattus norvegicus, UniProt P37136)
Value Comparator: <
pIC50: 4.40
//
Molecule Smiles: CCNC(=S)Nc1cc(-n2ccnn2)ncn1
Target Or System: Acetylcholinesterase (Rattus norvegicus, UniProt P37136)
Value Comparator: =
pIC50: 4.84
//
Molecule Smiles: CCNC(=S)Nc1cc(-n2cnc(CNC3CCCCC3)c2)ncn1
Target Or System: Acetylcholinesterase (Rattus norvegicus, UniProt P37136)
Value Comparator: =
pIC50: 6.37
//
Molecule Smiles: CCNCc1cn(-c2cc(NC(=S)NCC)ncn2)cn1
Target Or System: Acetylcholinesterase (Rattus norvegicus, UniProt P37136)
Value Comparator: =
pIC50: 6.47
//
Molecule Smiles: CCCCNC(=S)Nc1cc(-n2cccn2)ncn1
Target Or System: Acetylcholinesterase (Rattus norvegicus, UniProt P37136)
Value Comparator: =
pIC50: 4.63
//
Molecule Smiles: CCNC(=S)Nc1cc(N2CCOCC2)ncn1
Target Or System: Acetylcholinesterase (Rattus norvegicus, UniProt P37136)
Value Comparator: =
pIC50: 4.63
//
Molecule Smiles: CCNC(=S)Nc1nc2c(c(-n3ccnc3)n1)CCC2
Target Or System: Acetylcholinesterase (Rattus norvegicus, UniProt P37136)
Value Comparator: <
pIC50: 4.40
//
Molecule Smiles: CCNC(=S)Nc1cc(-n2ccnc2)ncn1
Target Or System: Acetylcholinesterase (Rattus norvegicus, UniProt P37136)
Value Comparator: =
pIC50: 5.80
//
Molecule Smiles: CCNC(=S)Nc1cc(-n2cnc(CN3CCCCCC3)c2)ncn1
Target Or System: Acetylcholinesterase (Rattus norvegicus, UniProt P37136)
Value Comparator: =
pIC50: 6.92
//
Molecule Smiles: CCNC(=S)Nc1cc(-n2cnc([N+](=O)[O-])c2)ncn1
Target Or System: Acetylcholinesterase (Rattus norvegicus, UniProt P37136)
Value Comparator: =
pIC50: 6.77
//
Molecule Smiles: CCNC(=S)Nc1cc(-n2cnc(CN3CCOCC3)c2)ncn1
Target Or System: Acetylcholinesterase (Rattus norvegicus, UniProt P37136)
Value Comparator: =
pIC50: 6.52
//
Molecule Smiles: CCNC(=S)Nc1cc(-n2cnc(C=O)c2)ncn1
Target Or System: Acetylcholinesterase (Rattus norvegicus, UniProt P37136)
Value Comparator: =
pIC50: 6.78
//
Molecule Smiles: CCNC(=S)Nc1ccnc(-n2ccnc2)n1
Target Or System: Acetylcholinesterase (Rattus norvegicus, UniProt P37136)
Value Comparator: <
pIC50: 4.40
